# experiment.notes: Effect of temperature (and pH) on the stability of the solution (purity)
# Format: physicochemical
# setup.conditions: 7% solution in water, pH 7.0, day 21, 25° C.
metric.name: Purity(%) at day 21 (25° C.)

CCN(CC)CCOC(=O)CC1=C(C)C(=Cc2ccc([S+](C)[O-])cc2)c2ccc(F)cc21.Cl (stereo not drawn)	59.8 ± 0.3%
CCN(CC)CCOC(=O)CCc1nc(-c2ccccc2)c(-c2ccccc2)o1.Cl	59.7 ± 0.2%
CCN(CC)CCOC(=O)C(C)c1ccc2oc(-c3ccc(Cl)cc3)nc2c1.Cl (stereo not drawn)	60.9 ± 0.2%
CCN(CC)CCOC(=O)C(C)c1ccc(-c2ccccc2)c(F)c1.Cl (racemic)	75.1 ± 0.3%
CCN(CC)CCOC(=O)Cc1c(C)n(C(=O)c2ccc(Cl)cc2)c2ccc(OC)cc12.Cl	59.9 ± 0.3%
CCN(CC)CCOC(=O)COc1nn(Cc2ccccc2)c2ccccc12.Cl	59.7 ± 0.3%
CCN(CC)CCOC(=O)Cc1ccc(C(=O)c2ccc(C)cc2)n1C.Cl	59.7 ± 0.3%
CCN(CC)CCOC(=O)COC(=O)Cc1c(C)n(C(=O)c2ccc(Cl)cc2)c2ccc(OC)cc12.Cl	59.7 ± 0.3%
CCN(CC)CCOC(=O)CCc1ccc2cc(OC)ccc2c1.Cl	60.9 ± 0.2%

* * *

# experiment.notes: Effect of temperature (and pH) on the stability of the solution (purity)
# Type: physicochemical
# setup.conditions: 7% solution in water, pH 6.0, day 21, 5° C.
metric.name: Purity(%) at day 21 (5° C.)

CCN(CC)CCOC(=O)CCc1ccc2cc(OC)ccc2c1.Cl	95.3
CCN(CC)CCOC(=O)COc1nn(Cc2ccccc2)c2ccccc12.Cl	93.7
CCN(CC)CCOC(=O)Cc1c(C)n(C(=O)c2ccc(Cl)cc2)c2ccc(OC)cc12.Cl	95.3
CCN(CC)CCOC(=O)CC1=C(C)C(=Cc2ccc([S+](C)[O-])cc2)c2ccc(F)cc21.Cl (centres unmarked)	94.4
CCN(CC)CCOC(=O)C(C)c1ccc2oc(-c3ccc(Cl)cc3)nc2c1.Cl (centres unmarked)	94.8

* * *

# experiment.notes: Effect of concentration on the stability of the solution (purity over time)
# setup.conditions: 50 wt %; in water at 25° C.
metric.name: Purity at Day 3 (%)

CCN(CC)CCOC(=O)Cc1sc(-c2ccccc2)nc1-c1ccc(Cl)cc1.Cl	98.8
CCN(CC)CCOC(=O)CC1=C(C)C(=Cc2ccc([S+](C)[O-])cc2)c2ccc(F)cc21.Cl (stereo not shown)	97.5
CCN(CC)CCOC(=O)Cc1ccc(C(=O)c2ccc(C)cc2)n1C.Cl	97.8
CCN(CC)CCOC(=O)Cc1c(C)n(C(=O)c2ccc(Cl)cc2)c2ccc(OC)cc12.Cl	98.5
CCN(CC)CCOC(=O)CCc1ccc2cc(OC)ccc2c1.Cl	98.5
CCN(CC)CCOC(=O)CCc1nc(-c2ccccc2)c(-c2ccccc2)o1.Cl	98.7
CCN(CC)CCOC(=O)C(C)c1ccc2oc(-c3ccc(Cl)cc3)nc2c1.Cl (stereo not shown)	98.5

* * *

The reader will find reported Purity (%) at Day 7 values listed item by item below.
# experiment.notes: Effect of concentration on the stability of the solution (purity over time)
# setup.conditions: 5 wt % in 50% ethanol, 25° C.
metric.name: Purity (%) at Day 7

CC(C)(C)OC(=O)c1ccccc1 [t-Butyl benzoate, reference compound]	0.0
CC(C)OC(=O)c1ccccc1 [Isopropyl benzoate, reference compound]	98.4
CC(C)(C)OC(=O)C(N)Cc1ccccc1 (centres unmarked) [t-Butyl 2-amino-3-phenylpropanoate, reference compound]	93.1
CC(C)OC(=O)C(N)Cc1ccccc1 (centres unmarked) [Isopropyl 2-amino-3-phenylpropanoate, reference compound]	98.4
CCOC(=O)c1ccccc1 [Ethyl benzoate, reference compound]	97.7

* * *

# experiment.notes: Effect of concentration on the stability of the solution (purity over time)
# setup.conditions: 50 wt %; in water at 25° C.
Property: Purity at Day 14; scope: individual compounds
metric.name: Purity at Day 14

CCN(CC)CCOC(=O)C(C)c1ccc2oc(-c3ccc(Cl)cc3)nc2c1.Cl (stereo not shown)	98.0%
CCN(CC)CCOC(=O)CC1=C(C)C(=Cc2ccc([S+](C)[O-])cc2)c2ccc(F)cc21.Cl (stereo not shown)	97.2%
CCN(CC)CCOC(=O)Cc1sc(-c2ccccc2)nc1-c1ccc(Cl)cc1.Cl	98.2%
CCN(CC)CCOC(=O)Cc1c(C)n(C(=O)c2ccc(Cl)cc2)c2ccc(OC)cc12.Cl	98.1%
CCN(CC)CCOC(=O)CCc1nc(-c2ccccc2)c(-c2ccccc2)o1.Cl	98.2%
CCN(CC)CCOC(=O)CCc1ccc2cc(OC)ccc2c1.Cl	98.1%
CCN(CC)CCOC(=O)Cc1ccc(C(=O)c2ccc(C)cc2)n1C.Cl	97.2%

* * *

# experiment.notes: Effect of concentration on the stability of the solution (purity over time)
# setup.conditions: 3 wt % in 50% ethanol, 25° C.
metric.name: Purity(%) at Day 14

CC(C)(C)OC(=O)C(N)Cc1ccccc1 (centres unmarked) [t-Butyl 2-amino-3-phenylpropanoate, reference compound]	89.5
CC(C)(C)OC(=O)c1ccccc1 [t-Butyl benzoate, reference compound]	0.0
CC(C)OC(=O)c1ccccc1 [Isopropyl benzoate, reference compound]	98.4
CCOC(=O)c1ccccc1 [Ethyl benzoate, reference compound]	97.6
CC(C)OC(=O)C(N)Cc1ccccc1 (centres unmarked) [Isopropyl 2-amino-3-phenylpropanoate, reference compound]	97.4

* * *

# experiment.notes: Effect of concentration on the stability of the solution (purity over time)
# setup.conditions: 3 wt % in 50% ethanol, 25° C.
The entries below come with measured Purity (%) at Day 7 values attached.
metric.name: Purity (%) at Day 7

CCOC(=O)c1ccccc1 [Ethyl benzoate, reference compound]	97.7
CC(C)(C)OC(=O)c1ccccc1 [t-Butyl benzoate, reference compound]	0.0
CC(C)OC(=O)c1ccccc1 [Isopropyl benzoate, reference compound]	98.4
CC(C)(C)OC(=O)C(N)Cc1ccccc1 (centres unmarked) [t-Butyl 2-amino-3-phenylpropanoate, reference compound]	92.4
CC(C)OC(=O)C(N)Cc1ccccc1 (centres unmarked) [Isopropyl 2-amino-3-phenylpropanoate, reference compound]	97.8

* * *

# experiment.notes: Effect of concentration on the stability of the solution (purity over time)
# setup.conditions: 1 wt %; in water at 25° C.
metric.name: Purity at Day 3

CCN(CC)CCOC(=O)Cc1ccc(C(=O)c2ccc(C)cc2)n1C.Cl	95.7%
CCN(CC)CCOC(=O)Cc1c(C)n(C(=O)c2ccc(Cl)cc2)c2ccc(OC)cc12.Cl	97.2%
CCN(CC)CCOC(=O)CC1=C(C)C(=Cc2ccc([S+](C)[O-])cc2)c2ccc(F)cc21.Cl (stereo not shown)	96.2%
CCN(CC)CCOC(=O)CCc1nc(-c2ccccc2)c(-c2ccccc2)o1.Cl	95.3%
CCN(CC)CCOC(=O)C(C)c1ccc2oc(-c3ccc(Cl)cc3)nc2c1.Cl (stereo not shown)	97.0%
CCN(CC)CCOC(=O)CCc1ccc2cc(OC)ccc2c1.Cl	97.0%
CCN(CC)CCOC(=O)Cc1sc(-c2ccccc2)nc1-c1ccc(Cl)cc1.Cl	96.6%

* * *

# experiment.notes: Effect of temperature (and pH) on the stability of the solution (purity)
# Type: physicochemical
# setup.conditions: 7% solution in water, pH 5.0, day 21, 60° C.
Reported Purity (%) at day 21 (60° C.) by item:
metric.name: Purity (%) at day 21 (60° C.)

CCN(CC)CCOC(=O)COC(=O)Cc1c(C)n(C(=O)c2ccc(Cl)cc2)c2ccc(OC)cc12.Cl	3.2
CCN(CC)CCOC(=O)Cc1c(C)n(C(=O)c2ccc(Cl)cc2)c2ccc(OC)cc12.Cl	1.9
CCN(CC)CCOC(=O)CCc1ccc2cc(OC)ccc2c1.Cl	5.9
CCN(CC)CCOC(=O)CC1=C(C)C(=Cc2ccc([S+](C)[O-])cc2)c2ccc(F)cc21.Cl (stereo not drawn)	1.5
CCN(CC)CCOC(=O)C(C)c1ccc2oc(-c3ccc(Cl)cc3)nc2c1.Cl (stereo not drawn)	2.9
CCN(CC)CCOC(=O)CCc1nc(-c2ccccc2)c(-c2ccccc2)o1.Cl	3.2
CCN(CC)CCOC(=O)Cc1ccc(C(=O)c2ccc(C)cc2)n1C.Cl	1.7
CCN(CC)CCOC(=O)C(C)c1ccc(-c2ccccc2)c(F)c1.Cl (racemic)	3.0
CCN(CC)CCOC(=O)COc1nn(Cc2ccccc2)c2ccccc12.Cl	4.2

* * *

# experiment.notes: Effect of temperature (and pH) on the stability of the solution (purity)
# Format: physicochemical
# setup.conditions: 7% solution in water, pH 4.3, day 21, 40° C.
metric.name: Purity(%) at day 21 (40° C.)

CCN(CC)CCOC(=O)Cc1ccc(C(=O)c2ccc(C)cc2)n1C.Cl	60.1
CCN(CC)CCOC(=O)COc1nn(Cc2ccccc2)c2ccccc12.Cl	58.8
CCN(CC)CCOC(=O)CCc1ccc2cc(OC)ccc2c1.Cl	70.1
CCN(CC)CCOC(=O)CC1=C(C)C(=Cc2ccc([S+](C)[O-])cc2)c2ccc(F)cc21.Cl (stereo not drawn)	63.1
CCN(CC)CCOC(=O)COC(=O)Cc1c(C)n(C(=O)c2ccc(Cl)cc2)c2ccc(OC)cc12.Cl	68.6
CCN(CC)CCOC(=O)CCc1nc(-c2ccccc2)c(-c2ccccc2)o1.Cl	54.8
CCN(CC)CCOC(=O)C(C)c1ccc(-c2ccccc2)c(F)c1.Cl (racemic)	72.2
CCN(CC)CCOC(=O)C(C)c1ccc2oc(-c3ccc(Cl)cc3)nc2c1.Cl (stereo not drawn)	63.1
CCN(CC)CCOC(=O)Cc1c(C)n(C(=O)c2ccc(Cl)cc2)c2ccc(OC)cc12.Cl	70.1
